These entries and their values trace back to patent US20230355720A1.

Target: T1, human GIP receptor (human, UniProt P48546 22-466)
T1 sequence (looked up): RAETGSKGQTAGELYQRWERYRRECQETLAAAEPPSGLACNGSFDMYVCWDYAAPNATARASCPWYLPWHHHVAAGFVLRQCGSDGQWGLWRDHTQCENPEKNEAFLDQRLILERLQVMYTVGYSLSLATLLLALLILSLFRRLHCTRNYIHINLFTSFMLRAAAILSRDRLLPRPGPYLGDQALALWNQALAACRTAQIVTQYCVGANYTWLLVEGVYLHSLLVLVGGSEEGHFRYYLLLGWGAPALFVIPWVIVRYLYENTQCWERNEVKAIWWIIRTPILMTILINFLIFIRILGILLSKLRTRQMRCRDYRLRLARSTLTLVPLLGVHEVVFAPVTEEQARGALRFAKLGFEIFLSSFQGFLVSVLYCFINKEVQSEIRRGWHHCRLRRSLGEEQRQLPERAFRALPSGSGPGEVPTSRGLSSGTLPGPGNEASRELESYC
Assay: cell-based or functional assay
Bridge positions count the residues as written; N and C are the ends. Square brackets hold non-standard residues; d marks the D form. Ends that are not written are not given here. * marks the point of attachment. Acetyl(2-(4-imidazolyl)) = O=C(Cc1c[nH]cn1)*; Aib = CC(C)(N)C(=O)O
Answer each item with its documented In vitro activity (%) compared with native peptide, vs GIP.
Answers are plain numbers, in %.

Use these answered entries as a reference point.
{Acetyl(2-(4-imidazolyl))}-[Aib]QGTFTSDYSKYLDEKRQKEFVNWLLAQKC (bridge 15-19; numbers in words are those of the source; also: ring between positions 16 and 20, type not given here) [triple agonist of SEQ ID NO: 93] :: 0.7
Y[Aib]QGTFTSDYSKCLDERAAKEFVQWLLDHHPSSGQPPPS (bridge 16-20) [triple agonist of SEQ ID NO: 69] :: 62.8
{Acetyl(2-(4-imidazolyl))}-[Aib]QGTFTSDYSKCLDEKRAKEFVQWLLDHHPSSGQPPPS (bridge 15-19) [triple agonist of SEQ ID NO: 74] :: 1

Would you kindly look at the next entry?
Qu. // In vitro activity (%) compared with native peptide, vs GIP lookup, key: Y[Aib]QGTFTSDYSKYLDECAAKDFVQWLLDHHPSSGQPPPS (bridge 16-20) [triple agonist of SEQ ID NO: 67]
Ans. 39.8
